# credit: patent US20150219624A1

Test system: primary human T-ALL samples
TEST_METHOD_NOTES: Viability / apoptosis induction in primary human T-ALL samples
Assay type: cell-based
MEASUREMENT_CONTEXT: primary human T-ALL samples in vitro, 48 hours
REPORTED_METRIC: IC50

Fill blank: measured IC50 of the compound COC(=O)[C@H]1[C@@H](O)[C@@]2(O)c3c(OC)cc(O[C@@H]4O[C@@H]([C@H](O)CO)CO[C@H]4OC)cc3O[C@@]2(c2ccc(OC)cc2)[C@@H]1c1ccccc1 [silvestrol] is ____. 3 to 13 nM

###

Test system: BE(2)C
TEST_METHOD_NOTES: Silvestrol in neuroblastoma cell lines in vitro: BE(2)C
Type: cell-based
MEASUREMENT_CONTEXT: Homo sapiens; BE(2)C cells, N-MYC
REPORTED_METRIC: IC50 (nM)
The response must be a number in nM with no trailing unit.

What IC50 value was documented for this compound, COC(=O)[C@H]1[C@@H](O)[C@@]2(O)c3c(OC)cc(O[C@@H]4O[C@@H]([C@H](O)CO)CO[C@H]4OC)cc3O[C@@]2(c2ccc(OC)cc2)[C@@H]1c1ccccc1 [silvestrol] ? 47.8
